Target: microtubular protein isolated from calf brain (Bos taurus, UniProt P81947+Q6B856)
Construct: isolated from calf brain according to the modified Shelanski method; from tissue; host or cells: calf brain
Sequence (Q6B856 whole entry): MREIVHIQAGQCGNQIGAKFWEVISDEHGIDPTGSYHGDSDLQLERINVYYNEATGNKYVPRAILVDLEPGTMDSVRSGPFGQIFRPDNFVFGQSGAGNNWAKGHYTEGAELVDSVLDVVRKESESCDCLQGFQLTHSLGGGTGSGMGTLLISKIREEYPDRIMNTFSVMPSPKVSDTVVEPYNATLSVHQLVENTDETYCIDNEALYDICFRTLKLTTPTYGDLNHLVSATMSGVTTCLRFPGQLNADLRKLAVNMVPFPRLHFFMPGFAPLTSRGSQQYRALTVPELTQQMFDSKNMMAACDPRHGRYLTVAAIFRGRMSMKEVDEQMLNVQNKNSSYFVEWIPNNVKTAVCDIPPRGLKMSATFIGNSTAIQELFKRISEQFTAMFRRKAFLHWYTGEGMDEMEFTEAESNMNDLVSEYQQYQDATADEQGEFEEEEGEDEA
Sequence (P81947 whole entry): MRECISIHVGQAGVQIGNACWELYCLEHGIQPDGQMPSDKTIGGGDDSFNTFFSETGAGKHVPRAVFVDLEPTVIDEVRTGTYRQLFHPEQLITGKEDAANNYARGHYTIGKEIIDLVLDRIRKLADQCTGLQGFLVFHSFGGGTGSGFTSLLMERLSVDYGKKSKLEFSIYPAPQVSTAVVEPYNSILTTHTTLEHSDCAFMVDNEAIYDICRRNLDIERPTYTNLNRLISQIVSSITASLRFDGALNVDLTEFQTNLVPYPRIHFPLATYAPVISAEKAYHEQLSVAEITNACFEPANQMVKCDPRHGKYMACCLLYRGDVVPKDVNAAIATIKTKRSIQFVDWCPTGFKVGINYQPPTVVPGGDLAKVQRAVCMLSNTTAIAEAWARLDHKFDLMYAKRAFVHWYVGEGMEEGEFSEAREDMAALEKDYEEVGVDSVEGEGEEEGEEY
Experiment: Inhibition of tubulin polymerisation (turbidity)
Format: biochemical
Conditions: 10 µM compound, 1.5 mg/mL microtubular protein
Method: Microtubular protein was isolated from calf brain according to the modified Shelanski method[23]^,[24] by two cycles of temperature-dependent assembly/disassembly and stored at −80 °C. Before each use, protein concentration is determined by Bradford method[25] taking BSA as standard. […] The assembly process was initiated by a temperature shift to 37 °C and the turbidity produced by tubulin polymerisation can be measured by an absorbance increase. […]
Could you please report measured TPI % 10 µM for the items listed next?
Report only the number, with the unit % understood.

Query: TPI % 10 µM; subject: CCN(c1cc(OC)c(OC)cc1Br)S(=O)(=O)c1ccc(OC)cc1 [Compound 15]
24

What about COc1ccc(S(=O)(=O)N(C)c2cc(OC)c(Br)cc2OC)cc1 [Compound 24] ?
59

Repeat with COc1ccc(S(=O)(=O)N(C)c2cc(OC)c(OC)cc2Br)cc1 [Compound 14]
0
